assay: self-splicing fitness, log relative to wild type (ln ratio); higher = more splicing; Tetrahymena group I intron in knt gene, E. coli kanamycin selection, DiMSum; sequences stand for … in CUCUCU…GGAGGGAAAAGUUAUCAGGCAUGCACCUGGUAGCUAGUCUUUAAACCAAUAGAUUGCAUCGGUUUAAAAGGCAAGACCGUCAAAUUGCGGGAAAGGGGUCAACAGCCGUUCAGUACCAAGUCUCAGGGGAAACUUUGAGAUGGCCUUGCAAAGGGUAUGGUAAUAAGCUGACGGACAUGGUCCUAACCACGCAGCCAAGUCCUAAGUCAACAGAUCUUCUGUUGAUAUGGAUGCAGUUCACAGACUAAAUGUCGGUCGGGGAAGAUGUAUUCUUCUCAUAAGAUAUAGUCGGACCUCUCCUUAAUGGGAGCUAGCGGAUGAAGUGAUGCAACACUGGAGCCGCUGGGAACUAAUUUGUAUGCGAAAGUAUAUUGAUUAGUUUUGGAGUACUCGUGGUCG; details: 37 °C;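 note: selection with 25 µg/mL kanamycin versus none on LB agar overnight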
Parameter: self-splicing fitness (ln). Scope: all listed entries.
Output: the number by itself.

{"construct_sequence": "UGGCAGCAAUAUUACGGUUU", "experimental_value": -0.422}

query: Looking for the measured self-splicing fitness (ln) of ACUCAGCAAUAUUACGAUAG , can you help?
result: -2.21

query: Looking for the measured self-splicing fitness (ln) of AGGCAGCAAUAUUACGGAGU , can you help?
result: -2.09

query: Looking for the measured self-splicing fitness (ln) of AAGUAGCAAUAUUACGGCCU , can you help?
result: -0.35

query: Looking for the measured self-splicing fitness (ln) of CAUUAGCAAUAUUACGUGAU , can you help?
result: -1.87

query: Looking for the measured self-splicing fitness (ln) of GCCGAGCAAUAUUACGAUAG , can you help?
result: -2.13

###

experiment: self-splicing fitness, log relative to wild type (ln ratio); higher = more splicing; Tetrahymena group I intron in knt gene, E. coli kanamycin selection, DiMSum; sequences stand for … in CUCUCU…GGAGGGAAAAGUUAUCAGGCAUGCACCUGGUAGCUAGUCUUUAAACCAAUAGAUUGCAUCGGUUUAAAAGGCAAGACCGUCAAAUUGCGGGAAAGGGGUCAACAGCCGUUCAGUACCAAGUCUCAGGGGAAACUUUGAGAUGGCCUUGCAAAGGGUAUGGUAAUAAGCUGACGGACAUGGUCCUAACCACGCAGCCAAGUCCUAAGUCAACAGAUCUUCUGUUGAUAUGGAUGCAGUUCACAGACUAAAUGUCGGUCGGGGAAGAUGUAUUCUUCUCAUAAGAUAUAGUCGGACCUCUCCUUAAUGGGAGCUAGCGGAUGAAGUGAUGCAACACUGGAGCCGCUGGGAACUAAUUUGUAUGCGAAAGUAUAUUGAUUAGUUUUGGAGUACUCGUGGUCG; conditions: 37 °C
measurement_name: self-splicing fitness (ln)
Output: the number by itself.

query: Looking for the measured self-splicing fitness (ln) of AUGGAGCAAUAUUACGGGGU , can you help?
result: -2.27

query: Looking for the measured self-splicing fitness (ln) of AACUAGCAAUAUUACGCUAC , can you help?
result: -1.34

query: Looking for the measured self-splicing fitness (ln) of GACCAGCAAUAUUACGUUGU , can you help?
result: -0.336

query: Looking for the measured self-splicing fitness (ln) of UCGUAGCAAUAUUACGUAAG , can you help?
result: -2.58

query: Looking for the measured self-splicing fitness (ln) of UCACAGCAAUAUUACGAUCU , can you help?
result: -1.78

query: Looking for the measured self-splicing fitness (ln) of ACUAAGCAAUAUUACGACCG , can you help?
result: 0.0545

query: Looking for the measured self-splicing fitness (ln) of CCACAGCAAUAUUACGGUGU , can you help?
result: -3.03

query: Looking for the measured self-splicing fitness (ln) of CUCCAGCAAUAUUACGCAGC , can you help?
result: -2.25

query: Looking for the measured self-splicing fitness (ln) of GGUCAGCAAUAUUACGCAUU , can you help?
result: 0.0322

query: Looking for the measured self-splicing fitness (ln) of AUCUAGCAAUAUUACGUACU , can you help?
result: -0.199
